Tested on: U-2932
Assay: growth inhibition by drug alone (1 - RLU/untreated control) (fraction); higher = stronger inhibition
Conditions: 1000 nM; time (day): 4; 177Lu-lilotomab satetraxetan 0 ug/ml
Where a name gives a salt, the structure may show the parent alone.
Each record's growth inhibition by drug alone is compared with class 1 = under -0.004, class 2 = from -0.004 up to 0.1, class 3 = 0.1 and over to give its class.

[[record]]
compound = "CN(c1ncccc1CNc1nc(Nc2ccc3c(c2)CC(=O)N3)ncc1C(F)(F)F)S(C)(=O)=O"
class_assignment = "class 3"

[[record]]
compound = "COc1cc(C(=O)NC(=S)Nc2cccc(NC(=O)c3ccccc3)c2)cc(OC)c1OC"
class_assignment = "class 3"

[[record]]
compound = "N#CC(c1ccnc(NCCc2cccnc2)n1)c1nc2ccccc2s1 (stereo unspecified) [JNK Inhibitor V]"
class_assignment = "class 1"

[[record]]
compound = "COc1cc(Nc2ncc3c(n2)-c2ccc(Cl)cc2C(c2c(F)cccc2OC)=NC3)ccc1C(=O)O [MLN8237 (Alisertib)]"
class_assignment = "class 3"

[[record]]
compound = "Cc1cccc(-c2nn3c(c2-c2ccnc4ccc(C(N)=O)cc24)CCC3)n1"
class_assignment = "class 1"

[[record]]
compound = "CO[C@H]1C[C@@H]2CC[C@@H](C)[C@@](O)(O2)C(=O)C(=O)N2CCCC[C@H]2C(=O)O[C@H]([C@H](C)C[C@@H]2CC[C@@H](OC(=O)C(C)(CO)CO)[C@H](OC)C2)CC(=O)[C@H](C)/C=C(\\C)[C@@H](O)[C@@H](OC)C(=O)[C@H](C)C[C@H](C)/C=C/C=C/C=C/1C [Temsirolimus (Torisel)]"
class_assignment = "class 3"

[[record]]
compound = "CNC(=O)c1ccc(N2C(=S)N(c3ccc(C#N)c(C(F)(F)F)c3)C(=O)C2(C)C)cc1F [MDV3100 (Enzalutamide)]"
class_assignment = "class 2"

[[record]]
compound = "O=C(O)CCc1ccc(NCc2cccc(Oc3ccccc3)c2)cc1"
class_assignment = "class 1"

[[record]]
compound = "COc1cc2c(NC3CCN(C)CC3)nc(N3CCCN(C)CC3)nc2cc1OCCCN(C)C"
class_assignment = "class 1"

[[record]]
compound = "CN[C@@H](C)C(=O)N[C@H]1CN(C(=O)CC(C)C)CC[C@H]2CC[C@@H](C(=O)NC(c3ccccc3)c3ccccc3)N2C1=O"
class_assignment = "class 1"

[[record]]
compound = "Cc1oc(S(=O)(=O)N2CCCCC2)cc1NC(=O)Nc1ccccc1"
class_assignment = "class 2"

[[record]]
compound = "Cc1nc(-c2ccc(OCC(C)C)c(C#N)c2)sc1C(=O)O [Febuxostat (Uloric)]"
class_assignment = "class 2"

[[record]]
compound = "CC(=O)Nc1cccc(-n2c(=O)n(C3CC3)c(=O)c3c(Nc4ccc(I)cc4F)n(C)c(=O)c(C)c32)c1"
class_assignment = "class 3"

[[record]]
compound = "COc1ccc(COc2cc3oc(=O)c4cc(C(C)O)ccc4c3cc2OC)cc1 (stereo unspecified) [Palomid 529]"
class_assignment = "class 2"

[[record]]
compound = "C#Cc1cccc(Nc2ncnc3cc(OCCOC)c(OCCOC)cc23)c1 [Erlotinib HCl]"
class_assignment = "class 3"

